# target_desc: T1, human HER2 His6 protein, extracellular domain (NCBI NP_004439.2, Met 1-Thr 652), C-terminal polyhistidine tag (human, UniProt P04626 23-652)
# T1 construct: range 1-652; The stated range includes Met 1; also called HER2-ECD; human HER2-ECD
# measurement_notes: ELISA, HER2 protein coated at 1 µg/mL, detection with HRP-labelled protein A, OD 450 nm
Consider the following binders; for each one, report its EC50.

Reference set (5 entries):
HER2 VHH-FC1 fusion protein 2-C07 (Fc fusion, 25; also called 2-C07-FC1; chimeric nanobody 2-C07) AVQLVESGGGLVQPGGSLRLSCAASGLTFMRYDINWYRQAPGKERELVAALDSSSGRTNYADFTEGRFTISRNNAKNSAYLQMNNLKPEDTASYYCNAQWKRIGADYWGQGTQVTVFSEPKSSDKTHTCPPCPAPEFEGGPSVFLFPPKPKDTLMISRTPEVTCVVVDVSHEDPEVKFNWYVDGVEVHNAKTKPREEQYNSTYRVVSVLTVLHQDWLNGKEYKCKVSNKALPASIEKTISKAKGQPREPQVYTLPPSRDELTKNQVSLTCLVKGFYPSDIAVEWESNGQPENNYKTTPPVLDSDGSFFLYSKLTVDKSRWQQGNVFSCSVMHEALHNHYTQKSLSLSPGK ... 0.07 nM
HER2 VHH-FC1 fusion protein 1-B05 (Fc fusion, 25; also called 1-B05-FC1; chimeric nanobody 1-B05) AVQLVESGGGPGGSLRLSCAASGITFFRHTLGWYRQAPGKQRELVASITGGESTNYADSVKSRFTISRDNAKNMVFLQMNSLKPEDTALYYCNSKWDAAGVEFWGKGTLVTVSSEPKSSDKTHTCPPCPAPEFEGGPSVFLFPPKPKDTLMISRTPEVTCVVVDVSHEDPEVKFNWYVDGVEVHNAKTKPREEQYNSTYRVVSVLTVLHQDWLNGKEYKCKVSNKALPASIEKTISKAKGQPREPQVYTLPPSRDELTKNQVSLTCLVKGFYPSDIAVEWESNGQPENNYKTTPPVLDSDGSFFLYSKLTVDKSRWQQGNVFSCSVMHEALHNHYTQKSLSLSPGK ... 0.069 nM
HER2 VHH-FC1 fusion protein 1-C09 (Fc fusion, 25; also called 1-C09-FC1; 1-C9-FC1) DVQLVESGGGLVQPGGSLRLSCEASGLTFRRYHFSWYRQPPGKERELVAVISDTGSTTNYTDSVKGRFTISRDLARNTVFLQLNSLKPDDTAVYYCNAKWPIIAADWWGQGTQVTVSSEPKSSDKTHTCPPCPAPEFEGGPSVFLFPPKPKDTLMISRTPEVTCVVVDVSHEDPEVKFNWYVDGVEVHNAKTKPREEQYNSTYRVVSVLTVLHQDWLNGKEYKCKVSNKALPASIEKTISKAKGQPREPQVYTLPPSRDELTKNQVSLTCLVKGFYPSDIAVEWESNGQPENNYKTTPPVLDSDGSFFLYSKLTVDKSRWQQGNVFSCSVMHEALHNHYTQKSLSLSPGK ... 0.125 nM
HER2 VHH-FC1 fusion protein 1-C10 (Fc fusion, 25; also called 1-C10-FC1; chimeric nanobody 1-C10) QVQLVESGGDLVQPGGSLRLSCATSGLTFRRYELKWYRQAPGKERELVAGITPASGSRNYADSVKGRFTISRDDAKMTVYLQMNSLEPEDTAVYYCNAYWMIPQHIENNYWGKGTLVTVSSEPKSSDKTHTCPPCPAPEFEGGPSVFLFPPKPKDTLMISRTPEVTCVVVDVSHEDPEVKFNWYVDGVEVHNAKTKPREEQYNSTYRVVSVLTVLHQDWLNGKEYKCKVSNKALPASIEKTISKAKGQPREPQVYTLPPSRDELTKNQVSLTCLVKGFYPSDIAVEWESNGQPENNYKTTPPVLDSDGSFFLYSKLTVDKSRWQQGNVFSCSVMHEALHNHYTQKSLSLSPGK ... 0.22 nM
HER2 VHH-FC1 fusion protein 2-F03 (Fc fusion, 25; also called 2-F03-FC1; chimeric nanobody 2-F03) EVQLVESGGGLVQPGGSLRLSCAASGLTFRRYHMSWYRQAPGKERELVAVISDTGTTNYAESVKGRFTISRDNSRSTVFLQLNSLKPDDTAVYYCNGRWPAVAADWWGQGTQVTVSSEPKSSDKTHTCPPCPAPEFEGGPSVFLFPPKPKDTLMISRTPEVTCVVVDVSHEDPEVKFNWYVDGVEVHNAKTKPREEQYNSTYRVVSVLTVLHQDWLNGKEYKCKVSNKALPASIEKTISKAKGQPREPQVYTLPPSRDELTKNQVSLTCLVKGFYPSDIAVEWESNGQPENNYKTTPPVLDSDGSFFLYSKLTVDKSRWQQGNVFSCSVMHEALHNHYTQKSLSLSPGK ... 0.05 nM

// next entry
**Q:** Any idea what EC50 was measured for HER2 VHH-FC1 fusion protein 1-G07 (Fc fusion, 25; also called 1-G07-FC1; chimeric nanobody 1-G07) QVQLVESGGGKAQPGGSLRLSCVASRITFRHYDLSWYRQAPGQERELVATVTNGGVITYADSVKGRFTISRDNAKNTVQLQMNNLKPEDTAVYYCNAVWVYLQRLTQNKKENDYWGPGTQVTVSSEPKSSDKTHTCPPCPAPEFEGGPSVFLFPPKPKDTLMISRTPEVTCVVVDVSHEDPEVKFNWYVDGVEVHNAKTKPREEQYNSTYRVVSVLTVLHQDWLNGKEYKCKVSNKALPASIEKTISKAKGQPREPQVYTLPPSRDELTKNQVSLTCLVKGFYPSDIAVEWESNGQPENNYKTTPPVLDSDGSFFLYSKLTVDKSRWQQGNVFSCSVMHEALHNHYTQKSLSLSPGK ?
**A:** 0.128 nM
